TARGET UNDER TEST: T1, control peptide A2E-4/HLA-A*02:01 complex on T2 cells (member of the P19 mixture) (human)
T1 construct: Loaded on T2 cells as part of the mixture of 19 control peptides
ASSAY INFO: flow cytometry, phage on T2 cells
MEASUREMENT LABEL: binding result

Worked examples, 5 binders total:
[
  {
    "BINDER": "PSA146/HLA-A*02:01-specific scFv phage clone #17 (scFv, V domains shown) VH: QMQLVQSGAEVKKPGESLKISCKGSGYSFTSYWIGWVRQMPGKGLEWMGIIYPGDSDTRYSPSFQGQVTISADKSISTAYLQWSSLKASDTAMYYCARLVVPDAFDIWGQGTMVTVSS VL: QSVVTQPPSVSAAPGQKVTISCSGSSSNIGNNYVSWYQQLPGTAPKLLIYDNYKRPSGIPDRFSGSKSGTSATLGITGLQTGDEADYYCGTWDSSLSAGVFGGGTKLTVLG",
    "binding result": "no binding"
  },
  {
    "BINDER": "PSA146/HLA-A*02:01-specific scFv phage clone #6 (scFv, V domains shown) VH: EVQLVQSGAEVKKPGASVKVSCKASGYTFTGYYIHWVRQAPGQGLEWMGGFDPEDGETIYAQKFQDRVTMTADTSTDTAYMELSSLRSEDTAVYYCARYGFDYWGQGTLVTVSS VL: QAVVTQEPSLTVSPGGTVTLTCASSTGAVTSGYYPNWFQLKPGQAPRALIYTTGKKHSWAPARFSGSLLGGKAALTLSGVQPEDEAEYYCLLYSGGVWVFGGGTKLTVLG",
    "binding result": "no binding"
  },
  {
    "BINDER": "PSA146/HLA-A*02:01-specific scFv phage clone #18 (scFv, V domains shown) VH: QVQLVQSGAEVKKPGESLKISCKGSGYSFTSYWIGWVRQMPGKGLEWMGIIYPGDSDTRYSPSFQGQVTISADKSISTAYLQWSSLKASDTAMYYCARWGSRGFLDAFDIWGQGTMVTVSS VL: QSVVTQPPSVSAAPGQRVTISCSGSSSNIGNNYVSWYQQLPGAAPRLLIYDNDKRPSGIPDRFSGSKSGTSATLGITGLQTGDEADYYCGTWDSSLSSGVFGGGTKLTVLG",
    "binding result": "no binding"
  },
  {
    "BINDER": "PSA146/HLA-A*02:01-specific scFv phage clone #5 (scFv, V domains shown) VH: QVQLVQSGAEVKKPGDSVKVSCKPSGYNFLNYGINWVRQAPGQGLEWMGWISTYTGNTNYAQKLQGRVTFTTDTSTSTAYMEMRSLRSDDTAVYYCARSSEYYTWDHWGQGTLVTVSS VL: QSVLTQPPSVSGAPGQRVTISCTGSSSNIGAGYDVHWYQQLPGTAPKLLIYGNSNRPSGVPDRFSGSKSGTSASLAITGLQAEDEADYYCQSYDSSLSGWVFGGGTKLTVLG",
    "binding result": "no binding"
  },
  {
    "BINDER": "PSA146/HLA-A*02:01-specific scFv phage clone #12 (scFv, V domains shown) VH: QMQLVQSGSEVKKPGASVKVSCKASGYTFTSYGISWVRQAPGQGLEWMGWISAYNGNTDYVQKLQGRVTMTTDTSTNTAYMELGSLGSDDTAVYYCARTNYNKYDIWGQGTLVTVSS VL: QSVLTQPPSVSGAPGQRVTISCTGSSSNIGAGYDVHWYQQLPGTAPKLLIYGNSNRPSGVPDRFSGSKSGTSASLAITGLQAEDEADYYCQSYDSSLSEVFGTGTKVTVLG",
    "binding result": "no binding"
  }
]

Next up:
Lookup result for PSA146/HLA-A*02:01-specific scFv phage clone #13 (scFv, V domains shown) VH: QVQLVQSGAEVKKPGASVKVSCKASGYTFTSYYMHWVRQAPGQGLEWMGGFDPEDGETIYAQKFQGRVTMTEDTSTDTAYMGLSSLRSEDTAVYYCARYSYDYWGQGTLVTVSS VL: QAVVTQEPSLTVSPGGTVTLTCASSTGAVTSGYYPNWFQQKPGQAPRALIYSTSNKHSWTPARFSGSLLGGKAALTLSGVQPEDEAEYYCLLYYGGAYVFGTGTKVTVLG ; measured binding result: no binding
